system: Escherichia coli TOP10; assay: shrunken log2 fold change of peptide-encoding DNA abundance (4.5 h post-induction vs induction); higher = less antimicrobial activity (less host growth inhibition); conditions: time post-induction: 4.5 h; library: site-saturation at positions 5, 18, 19, 20;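 further: peptides expressed intracellularly from a pBAD plasmid library in pooled LB shake-flask culture, induced with 0.3% L-arabinose, DNA abundance read by NGS, three biological replicates, DESeq2 with apeglm shrinkage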
The following sequences are listed with their measured shrunken log2 fold change values.

- Seq String: "RRIRCRPPRLPRPRPRPFTMPRP"
  shrunken log2 fold change: -1.13
- Seq String: "RRIRHRPPRLPRPRPRPRFEPRP"
  shrunken log2 fold change: 0.185
- Seq String: "RRIRTRPPRLPRPRPRPLGVPRP"
  shrunken log2 fold change: -0.194
- Seq String: "RRIRLRPPRLPRPRPRPKARPRP"
  shrunken log2 fold change: -0.00543
- Seq String: "RRIRARPPRLPRPRPRPDEPPRP"
  shrunken log2 fold change: 0.0489
- Seq String: "RRIRPRPPRLPRPRPRPHELPRP"
  shrunken log2 fold change: -0.0456
- Seq String: "RRIRHRPPRLPRPRPRPVVQPRP"
  shrunken log2 fold change: 0.13
- Seq String: "RRIRWRPPRLPRPRPRPFRAPRP"
  shrunken log2 fold change: -0.112
- Seq String: "RRIRDRPPRLPRPRPRPQNLPRP"
  shrunken log2 fold change: 0.0232
- Seq String: "RRIRRRPPRLPRPRPRPNGYPRP"
  shrunken log2 fold change: 0.17
- Seq String: "RRIRGRPPRLPRPRPRPPYQPRP"
  shrunken log2 fold change: 0.123
- Seq String: "RRIRMRPPRLPRPRPRPWMGPRP"
  shrunken log2 fold change: -0.33
- Seq String: "RRIRERPPRLPRPRPRPIQTPRP"
  shrunken log2 fold change: 0.0703
- Seq String: "RRIRRRPPRLPRPRPRPLAVPRP"
  shrunken log2 fold change: 0.176
- Seq String: "RRIRYRPPRLPRPRPRPNHEPRP"
  shrunken log2 fold change: -0.657
- Seq String: "RRIRNRPPRLPRPRPRPDCKPRP"
  shrunken log2 fold change: -0.0698
- Seq String: "RRIRDRPPRLPRPRPRPKEGPRP"
  shrunken log2 fold change: 0.32
- Seq String: "RRIRHRPPRLPRPRPRPFFEPRP"
  shrunken log2 fold change: -0.0877
- Seq String: "RRIRCRPPRLPRPRPRPVQPPRP"
  shrunken log2 fold change: 0.455
- Seq String: "RRIRVRPPRLPRPRPRPPARPRP"
  shrunken log2 fold change: 0.76
- Seq String: "RRIRARPPRLPRPRPRPSYNPRP"
  shrunken log2 fold change: -0.428
- Seq String: "RRIRHRPPRLPRPRPRPCICPRP"
  shrunken log2 fold change: -0.347
- Seq String: "RRIRKRPPRLPRPRPRPGECPRP"
  shrunken log2 fold change: 0.381
- Seq String: "RRIRFRPPRLPRPRPRPGRPPRP"
  shrunken log2 fold change: 0.514
- Seq String: "RRIRRRPPRLPRPRPRPTQWPRP"
  shrunken log2 fold change: 0.183
- Seq String: "RRIRLRPPRLPRPRPRPDLAPRP"
  shrunken log2 fold change: -0.062
- Seq String: "RRIRERPPRLPRPRPRPNVVPRP"
  shrunken log2 fold change: 0.0366
- Seq String: "RRIRYRPPRLPRPRPRPHHNPRP"
  shrunken log2 fold change: -1.28
- Seq String: "RRIRRRPPRLPRPRPRPDTDPRP"
  shrunken log2 fold change: -0.108
- Seq String: "RRIRGRPPRLPRPRPRPPCIPRP"
  shrunken log2 fold change: 0.117
- Seq String: "RRIRHRPPRLPRPRPRPALRPRP"
  shrunken log2 fold change: 0.269
- Seq String: "RRIRSRPPRLPRPRPRPIWVPRP"
  shrunken log2 fold change: 0.0576
